- target desc: Cytochrome P450 2C19 (Homo sapiens, UniProt P33261)
- Sequence (P33261 whole entry): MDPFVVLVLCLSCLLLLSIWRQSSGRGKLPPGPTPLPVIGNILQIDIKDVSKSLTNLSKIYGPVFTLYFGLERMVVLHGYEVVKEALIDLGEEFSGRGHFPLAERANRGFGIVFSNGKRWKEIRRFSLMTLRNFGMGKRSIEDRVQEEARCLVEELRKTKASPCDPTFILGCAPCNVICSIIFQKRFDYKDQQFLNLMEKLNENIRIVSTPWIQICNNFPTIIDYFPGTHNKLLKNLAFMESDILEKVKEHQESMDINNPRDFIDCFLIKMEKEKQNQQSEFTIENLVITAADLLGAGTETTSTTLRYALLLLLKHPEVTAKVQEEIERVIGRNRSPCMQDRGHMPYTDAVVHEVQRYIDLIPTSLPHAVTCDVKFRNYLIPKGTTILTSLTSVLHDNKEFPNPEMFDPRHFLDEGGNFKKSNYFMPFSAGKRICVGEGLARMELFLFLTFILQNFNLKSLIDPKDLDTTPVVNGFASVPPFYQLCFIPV
- assay explanation: Cytochrome panel assay with activity outcomes. Panel member name: p450-cyp2c19 Compounds with AC50 equal or less than 10 uM are considered active
- Assay type: functional
- run parameters: read-out: AC50
quantity: AC50

Examples with their reported AC50 follow.
compound	AC50
CN(C)CCN1C(=O)C(O)=C(C(=O)c2cc3ccccc3o2)C1c1cccc(Br)c1 (centres undefined)	31.6 µM (inconclusive)
COCCNC(=O)C1CCN(S(=O)(=O)N2CCC3(CC2)OCCO3)CC1	15.8 µM (inconclusive)
CO[C@@]12C[C@@H](COC(=O)c3cncc(Br)c3)CN(C)[C@H]1Cc1cn(C)c3cccc2c13	7.94 µM (inconclusive)

Now consider the entry below.
Query :: For the compound CCCCC(=O)NCCc1c(Cc2ccccc2)[nH]c2ccccc12 , give its reported AC50.
Result :: 20 µM (inconclusive)
